The measured values listed here are drawn from the supplement of paper PMC12698765.

Catalogue of cell survival readings, one per entry.
# Test system: 409B2 hiPSC (iCRISPR Cas9, FRMD7 editing)
# measurement-description: cell survival relative to solvent control (fold (ratio to mock)); higher = more surviving cells
# experimental-conditions: 200 nM
Counter-ions that a name gives are not always drawn.
Just the number, please.

{"columns": ["compound", "cell survival"],
 "data": [
  ["N=C(NCCCCCCNC(=N)NC(=N)Nc1ccc(Cl)cc1)NC(=N)Nc1ccc(Cl)cc1 [Chlorhexidine HCl] (in DMSO)", 1.04],
  ["C[C@]12CC[C@@H]3c4ccc(O)cc4CC[C@H]3[C@@H]1C[C@@H](O)[C@@H]2O [Estriol] (in DMSO)", 1.02],
  ["CC[C@@]1(O)C(=O)OCc2c1cc1n(c2=O)Cc2cc3cc(O)ccc3nc2-1 [10-Hydroxycamptothecin] (in DMSO)", -0.0102],
  ["CC(=O)O[C@@]12CO[C@@H]1C[C@@H](O)[C@@]1(C)C(=O)[C@H](O)C3=C(C)[C@@H](O)C[C@@](O)([C@@H](OC(=O)c4ccccc4)[C@H]21)C3(C)C [10-DAB (10-Deacetylbaccatin)] (in DMSO)", 0.914],
  ["CS(=O)(=O)N1CCN(Cc2cc3nc(-c4cccc5[nH]ncc45)nc(N4CCOCC4)c3s2)CC1 [GDC-0941] (in DMSO)", 0.444],
  ["CC(C)(c1ccc(O)cc1)c1ccc(O)cc1 [Bisphenol A] (in DMSO)", 1.22]
]}

Record C1CCN2C[C@@H]3C[C@@H](CN4CCCC[C@@H]34)[C@H]2C1 [Sparteine] (in DMSO) . Reported cell survival: 1.05

cell survival reported for this compound OC[C@H]1O[C@@H](c2ccc(F)c(Cc3cc4ccccc4s3)c2)[C@H](O)[C@@H](O)[C@@H]1O [Ipragliflozin] (in DMSO) : 1.12

Entry Cc1c(C(C)C)c(=O)n(-c2ccccc2)n1C [Propyphenazone (4-Isopropylantipyrine)] (in DMSO) , cell survival reported as 1.03

For record CSCCC(N)C(=O)O (racemic) [DL-Methionine] (in H2O) the listed cell survival is 0.957

The compound listed as O[C@@H]1[C@H](O)[C@H](O)CO[C@H]1O [D-Ribose] (in DMSO) has a reported cell survival of 1.06

So for CC(=O)O[C@]1(C(C)=O)CC[C@H]2[C@@H]3C=C(Cl)C4=CC(=O)[C@@H]5C[C@@H]5[C@]4(C)[C@H]3CC[C@@]21C [Cyproterone Acetate] (in DMSO) , the logged cell survival turned out to be 1.09

Note to self: cell survival recorded for Nc1c(CC(=O)O)cccc1C(=O)c1ccc(Br)cc1 [Bromfenac Sodium] (in DMSO) was 1.06

Reported cell survival ( NS(=O)(=O)c1ccccc1 [Benzenesulfonamide] (in DMSO) ) = 1.13

// cell survival lookup, compound = C=CC[C@]1(O)CC[C@H]2[C@@H]3CCC4=CC(=O)CCC4=C3C=C[C@@]21C [Altrenogest] (in DMSO) , result: 1.05

====

# Tested on: 409B2 hiPSC (iCRISPR Cas9, FRMD7 editing)
# measurement-description: HDR (precise edit) frequency relative to solvent control (fold (ratio to mock)); higher = more homology-directed repair outcomes
# experimental-conditions: 2 nM
Counter-ions that a name gives are not always drawn.
Below, each of the compounds is paired with its reported HDR value.
Quick one: just the number, no unit, thanks!

In the examples that follow, each entry is paired with its recorded HDR.
{"columns": ["compound", "target-of-assay", "experimental-result"],
 "data": [
  ["CC[N+](CC)(CC)CC [Tetraethylammonium chloride] (in EtOH)", "409B2 hiPSC (iCRISPR Cas9, FRMD7 editing)", 0.961],
  ["Cc1ccc(C(=O)N(CCCN)[C@@H](c2nc3cc(Cl)ccc3c(=O)n2Cc2ccccc2)C(C)C)cc1 (in DMSO)", "409B2 hiPSC (iCRISPR Cas9, FRMD7 editing)", 1.03],
  ["CC[C@@]1(O)C(=O)OCc2c1cc1n(c2=O)Cc2cc3c(CN(C)C)c(O)ccc3nc2-1 [Topotecan] (in DMSO)", "409B2 hiPSC (iCRISPR Cas9, FRMD7 editing)", 1.11],
  ["CC[C@]1(O)C[C@@H]2CN(CCc3c([nH]c4ccccc34)[C@@](C(=O)OC)(c3cc4c(cc3OC)N(C)[C@H]3[C@@](O)(C(=O)OC)[C@H](OC(C)=O)[C@]5(CC)C=CCN6CC[C@]43[C@@H]65)C2)C1 [vinblastine] (in DMSO)", "409B2 hiPSC (iCRISPR Cas9, FRMD7 editing)", 0.877]
]}

Lab note: next compound to report on.
The recorded HDR for entry CC[C@]1(O)C[C@@H]2CN(CCc3c([nH]c4ccccc34)[C@@](C(=O)OC)(c3cc4c(cc3OC)N(C)[C@H]3[C@@](O)(C(=O)OC)[C@H](OC(C)=O)[C@]5(CC)C=CCN6CC[C@]43[C@@H]65)C2)C1 [Vinblastine sulfate] (in DMSO) equals 1.08
